system: LOX IMVI melanoma; experiment: NCI tumour cell line growth inhibition, 48 h
Where a SMILES comes first, the peptide text is derived from it. [ ]: non-standard residue; d: D form. The star is where a group is joined. ξ: configuration not given here. ξPhe(4-NO2) = NC(Cc1ccc([N+](=O)[O-])cc1)C(=O)O; Boc = CC(C)(C)OC(=O)*
Record form. Attribute: TGI. Fill in for each entry.

Form: compound = N#CC(C(=O)O)C(c1c(Cl)cccc1Cl)C(C#N)C(=O)O (centres undefined) ; TGI = > 100 µM

response.value for O=C1/C(=C\c2cccc(Oc3ccccc3)c2)SC(c2ccccc2)N1c1cccc(Cl)c1 (centres undefined) (field: TGI) = > 100 µM

TGI reading for O=C(N[C@@H](Cc1ccccc1)B(O)O)[C@H](Cc1cccc2ccccc12)NC(=O)N1CCOCC1 : 0.00343 µM

So for CCNC(=O)CNC(=O)C(Cc1ccc([N+](=O)[O-])cc1)NC(=O)OC(C)(C)C (centres undefined) (Boc-[ξPhe(4-NO2)]-Gly-NHEt) , the logged TGI turned out to be > 100 µM

TGI measured on CCCCn1c(C)c2c(c1C)C(=O)N(CCN1CCN(c3ccccc3Cl)CC1)C2=O = 30.1 µM

Provide TGI for all items below, preserving their order.
1. COc1cc2c(cc1OC)-c1ncc3cc(OC)c(OC)cc3c1C2
2. CS(=O)(=O)CCC(N)P(=O)(O)O (centres undefined)
3. Fc1cc2nc3n(c2cc1F)C(c1c(Cl)cccc1Cl)SC3 (centres undefined)
4. COC1C(O)CC(OC2CC(OC3CC(O[C@@H]4C(=O)c5c(cc6cc(OC7CC(OC8CC(O)C(O)C(C)O8)C(O)C(C)O7)c(C)c(O)c6c5O)CC4[C@H](OC)[C@@H](O)C(C)=O)OC(C)C3O)OC(C)C2O)OC1C (some centres undefined)
5. COc1cc(=O)oc(/C=C/C=C/C=C/C(C)=C\C2(C)OC(C)C(C)(O)C2O)c1C (centres undefined)
6. O=c1oc2ccccc2n1CCCn1c(=O)oc2ccccc21
7. O=P(O)(O)CC1OC(CO)C(O)C1O (centres undefined)

OUT:
1. > 50 µM
2. > 100 µM
3. 31.7 µM
4. 0.0325 µM
5. > 100 µM
6. > 100 µM
7. > 100 µM

Can you give me TGI for all of these, one by one?
1. CC(C)C[C@H](NC(=O)CCc1cccc2ccccc12)B(O)O
2. CCOC(=O)C(=O)C(/C(=N/N(C)C)C(=O)Nc1ccc(C)cc1C)c1nc2ccccc2[nH]c1=O (centres undefined)
3. CCOc1ccc(N=Cc2ccc3ccccc3n2)cc1
4. CC1(C)/C(=N\Nc2ccc([N+](=O)[O-])cc2[N+](=O)[O-])C2CCC1C2 (centres undefined)
5. CCCCCCCCCCCCC(NC(C)=O)(C(=O)OCC)C(=O)OCC

OUT:
["1.77 µM", "> 100 µM", "> 100 µM", "> 100 µM", "25.2 µM"]
